Molecular target: 5-hydroxytryptamine receptor 2C (Rattus norvegicus) (UniProt P08909)
Sequence (P08909 whole entry): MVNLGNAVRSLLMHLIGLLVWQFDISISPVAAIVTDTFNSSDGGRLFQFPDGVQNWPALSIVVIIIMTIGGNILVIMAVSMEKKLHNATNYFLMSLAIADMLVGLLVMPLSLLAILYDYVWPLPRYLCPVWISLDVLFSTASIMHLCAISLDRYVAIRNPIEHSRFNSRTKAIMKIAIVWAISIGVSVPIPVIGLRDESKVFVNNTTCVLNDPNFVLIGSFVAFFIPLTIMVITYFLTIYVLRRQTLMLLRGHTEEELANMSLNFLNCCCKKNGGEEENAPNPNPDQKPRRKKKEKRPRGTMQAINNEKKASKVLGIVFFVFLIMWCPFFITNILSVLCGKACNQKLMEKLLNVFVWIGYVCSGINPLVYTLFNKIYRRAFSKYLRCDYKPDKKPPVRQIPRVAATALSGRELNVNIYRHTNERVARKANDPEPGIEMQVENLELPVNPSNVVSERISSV
Assay: In vivo activity in rat mCPP challenge test following p.o. administration.
Format: functional, organism-based
observable: ED50 (mg/kg)

Q. Item Cc1ccc2c(c1)Cc1ccccc1N1OC(CN(C)C)CC21 (stereo not given) : provide ED50
A. 2.5

Q. Item CN(C)CC1CC2c3cccc(F)c3Cc3ccccc3N2O1 (stereo not given) : provide ED50
A. 2.5

Q. Item CN(C)CC1CC2c3ccccc3Cc3ccc(Br)cc3N2O1 (stereo not given) : provide ED50
A. 2.5

Q. Item CN(C)CC1CC2c3ccccc3Cc3cc(F)ccc3N2O1 (stereo not given) : provide ED50
A. 2.5

I: CN(C)CC1CC2c3ccccc3Cc3ccc(Cl)cc3N2O1 (stereo not given)
II: Cc1ccc2c(c1)N1OC(CN(C)C)CC1c1ccccc1C2 (stereo not given)
Q. For the pair I and II , which entry has the numerically smaller recorded ED50? Write down the label attached to your selection.
A. I

A: CN(C)CC1CC2c3ccccc3Cc3c(F)cccc3N2O1 (stereo not given)
B: CN(C)CC1CC2c3cc(F)ccc3Cc3ccc(F)cc3N2O1 (stereo not given)
Q. From the recorded data, which exceeds the other in ED50: A or B ? Write down the label attached to your selection.
A. A
(A: 2.5 mg/kg, B: 0.63 mg/kg)

1: CN(C)CC1CC2c3ccccc3Cc3ccc(F)cc3N2O1 (stereo not given)
2: CN(C)CC1CC2c3ccccc3Cc3ccccc3N2O1 (stereo not given)
Q. From the recorded data, which exceeds the other in ED50: 1 or 2 ? Write down the label attached to your selection.
A. 1

---

Biological target: 5-hydroxytryptamine receptor 2A (Homo sapiens, UniProt P28223)
Sequence (P28223 whole entry): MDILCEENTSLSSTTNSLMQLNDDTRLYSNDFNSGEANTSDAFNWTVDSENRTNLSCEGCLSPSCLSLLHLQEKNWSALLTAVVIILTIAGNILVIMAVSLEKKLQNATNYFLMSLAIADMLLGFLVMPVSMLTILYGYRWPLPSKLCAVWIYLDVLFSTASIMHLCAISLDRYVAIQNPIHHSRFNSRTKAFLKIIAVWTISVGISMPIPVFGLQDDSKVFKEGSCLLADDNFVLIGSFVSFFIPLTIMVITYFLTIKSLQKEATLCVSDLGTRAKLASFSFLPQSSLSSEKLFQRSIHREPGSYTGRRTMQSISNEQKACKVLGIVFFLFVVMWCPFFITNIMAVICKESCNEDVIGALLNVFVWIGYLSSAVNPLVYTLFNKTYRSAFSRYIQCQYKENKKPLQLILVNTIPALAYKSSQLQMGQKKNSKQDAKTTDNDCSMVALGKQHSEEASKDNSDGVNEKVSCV
Experiment: Binding affinity at human cloned 5-hydroxytryptamine 2A receptor expressed in L929 cells by [125I]R91150 displacement.
pIC50: −log10 of the molar value.
observable: pIC50

a: CN(C)CC1CC2c3ccccc3Cc3ccc(F)cc3N2O1 (configuration not stated)
b: CN(C)CC1CC2c3cc(F)ccc3Cc3ccc(F)cc3N2O1 (configuration not stated)
Q. For the pair a and b , which entry has the numerically smaller recorded pIC50? Write down the label attached to your selection.
A. b
(b: 7.97, a: 8.94)

P: CN(C)CC1CC2c3cccc(F)c3Cc3ccccc3N2O1 (configuration not stated)
Q: Cc1ccc2c(c1)Cc1ccccc1N1OC(CN(C)C)CC21 (configuration not stated)
Q. From the recorded data, which exceeds the other in pIC50: P or Q ? Write down the label attached to your selection.
A. Q

---

Target: 5-hydroxytryptamine receptor 1A (Homo sapiens)
Sequence (P08908 whole entry): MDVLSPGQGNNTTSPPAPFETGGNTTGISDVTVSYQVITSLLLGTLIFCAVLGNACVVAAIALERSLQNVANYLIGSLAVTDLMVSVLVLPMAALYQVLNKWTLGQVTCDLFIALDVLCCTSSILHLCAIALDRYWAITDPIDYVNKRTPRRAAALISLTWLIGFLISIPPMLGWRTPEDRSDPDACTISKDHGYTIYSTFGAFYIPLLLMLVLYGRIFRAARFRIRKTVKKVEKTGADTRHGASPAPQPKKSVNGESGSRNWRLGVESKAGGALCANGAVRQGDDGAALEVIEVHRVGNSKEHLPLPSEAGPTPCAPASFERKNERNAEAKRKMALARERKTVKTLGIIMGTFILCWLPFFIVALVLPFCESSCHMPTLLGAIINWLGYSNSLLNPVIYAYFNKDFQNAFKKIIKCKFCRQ
pIC50: −log10 of the molar value.
Property: pIC50; scope: individual compounds

Q. Item Cc1ccc2c(c1)N1OC(CN(C)C)CC1c1ccccc1C2 (configuration not stated) : provide pIC50
A. < 6.00

Others:
Q. Item CN(C)CC1CC2c3cc(F)ccc3Cc3ccc(F)cc3N2O1 (configuration not stated) : provide pIC50
A. < 6.00

---

Target: Histamine H1 receptor (Homo sapiens, UniProt P35367)
Sequence (P35367 whole entry): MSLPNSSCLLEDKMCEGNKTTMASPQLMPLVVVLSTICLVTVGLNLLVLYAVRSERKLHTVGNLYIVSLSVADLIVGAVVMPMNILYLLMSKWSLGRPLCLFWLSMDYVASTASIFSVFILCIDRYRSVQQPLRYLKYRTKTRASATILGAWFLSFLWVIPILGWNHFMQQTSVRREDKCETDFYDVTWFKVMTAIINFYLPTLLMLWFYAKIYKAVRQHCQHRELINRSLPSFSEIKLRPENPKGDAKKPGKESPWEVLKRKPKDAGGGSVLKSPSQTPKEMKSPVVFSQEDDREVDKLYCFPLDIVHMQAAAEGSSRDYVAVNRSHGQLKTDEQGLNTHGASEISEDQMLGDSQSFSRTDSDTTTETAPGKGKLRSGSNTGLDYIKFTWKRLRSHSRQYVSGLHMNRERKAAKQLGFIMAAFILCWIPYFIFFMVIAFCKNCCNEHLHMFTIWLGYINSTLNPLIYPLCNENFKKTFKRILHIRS
Assay: Binding affinity at human cloned Histamine H1 receptor expressed in CHO cells by [3H]pyrilamine displacement.
Property: IC50; scope: individual compounds

Q. Item CN(C)CC1CC2c3c(F)cccc3Cc3ccccc3N2O1 (stereo not drawn) : provide IC50
A. > 1000 nM

Q. Item CN(C)CC1CC2c3cc(C(F)(F)F)ccc3Cc3ccccc3N2O1 (stereo not drawn) : provide IC50
A. > 1000 nM

Others:
Q. Item CN(C)CC1CC2c3cccc(Cl)c3Cc3ccccc3N2O1 (stereo not drawn) : provide IC50
A. > 1000 nM

---

Target sequence: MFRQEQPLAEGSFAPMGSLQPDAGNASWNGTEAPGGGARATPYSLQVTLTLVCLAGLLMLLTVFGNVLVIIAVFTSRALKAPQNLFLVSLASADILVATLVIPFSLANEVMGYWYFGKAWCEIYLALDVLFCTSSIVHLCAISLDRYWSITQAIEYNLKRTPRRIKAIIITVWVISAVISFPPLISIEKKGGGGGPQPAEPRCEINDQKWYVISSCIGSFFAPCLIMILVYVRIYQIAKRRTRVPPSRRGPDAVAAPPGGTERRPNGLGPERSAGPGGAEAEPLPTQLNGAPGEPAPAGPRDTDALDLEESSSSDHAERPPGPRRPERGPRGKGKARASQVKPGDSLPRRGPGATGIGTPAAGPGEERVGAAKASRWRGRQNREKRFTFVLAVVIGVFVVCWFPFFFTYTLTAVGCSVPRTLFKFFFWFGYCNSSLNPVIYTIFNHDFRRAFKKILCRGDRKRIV
pIC50: −log10 of the molar value.
observable: pIC50

Q. Item Cc1ccc2c(c1)N1OC(CN(C)C)CC1c1ccccc1C2 (stereo unspecified) : provide pIC50
A. < 6.00

---

Biological target: 5-hydroxytryptamine receptor 1D (Homo sapiens, UniProt P28221)
Sequence (P28221 whole entry): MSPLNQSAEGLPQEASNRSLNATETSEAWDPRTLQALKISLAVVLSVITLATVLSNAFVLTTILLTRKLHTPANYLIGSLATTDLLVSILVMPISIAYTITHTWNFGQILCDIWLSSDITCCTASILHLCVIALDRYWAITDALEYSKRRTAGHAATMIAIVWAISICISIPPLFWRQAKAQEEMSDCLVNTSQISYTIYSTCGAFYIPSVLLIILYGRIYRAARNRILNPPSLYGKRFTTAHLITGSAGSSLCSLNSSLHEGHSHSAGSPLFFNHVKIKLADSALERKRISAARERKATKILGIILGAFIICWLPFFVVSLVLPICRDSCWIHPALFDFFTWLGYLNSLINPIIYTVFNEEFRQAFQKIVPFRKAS
observable: IC50

Q. Look up 5-hydroxytryptamine receptor 1D (Homo sapiens, UniProt P28221) data: IC50 of CN(C)CC1CC2c3cc(F)ccc3Cc3ccc(F)cc3N2O1 (stereo unspecified) , then report it.
A. > 1000 nM

---

Molecular target: D(2) dopamine receptor (Rattus norvegicus)
Sequence (P61169 whole entry): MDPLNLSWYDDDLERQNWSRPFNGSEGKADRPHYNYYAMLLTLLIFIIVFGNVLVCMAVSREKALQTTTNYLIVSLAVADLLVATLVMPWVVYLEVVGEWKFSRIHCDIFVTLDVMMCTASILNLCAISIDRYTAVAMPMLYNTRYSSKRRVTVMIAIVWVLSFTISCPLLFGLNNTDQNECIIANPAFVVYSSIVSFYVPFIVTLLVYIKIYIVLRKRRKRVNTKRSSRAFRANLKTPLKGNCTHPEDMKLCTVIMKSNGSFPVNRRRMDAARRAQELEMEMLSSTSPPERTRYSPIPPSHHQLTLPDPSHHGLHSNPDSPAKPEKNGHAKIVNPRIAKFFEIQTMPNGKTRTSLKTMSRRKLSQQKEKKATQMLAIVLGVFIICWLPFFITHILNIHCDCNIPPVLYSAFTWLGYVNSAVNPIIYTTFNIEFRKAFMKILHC
Experiment: Binding affinity for rat Dopamine receptor D2
Property: IC50; scope: individual compounds

Q. Item Cc1ccc2c(c1)N1OC(CN(C)C)CC1c1ccccc1C2 (configuration not stated) : provide IC50
A. > 1 µM

Others:
Q. Item CN(C)CC1CC2c3ccccc3Cc3ccc(F)cc3N2O1 (configuration not stated) : provide IC50
A. > 1 µM

---

Target: Serotonin 3 (5-HT3) receptor
Test: Binding affinity for human cloned 5-hydroxytryptamine 3 receptor
Type: protein-complex assay
Property: pIC50; scope: individual molecules

Worked examples follow.
Q. Item CN(C)CC1CC2c3cc(F)ccc3Cc3ccc(F)cc3N2O1 (centres undefined) : provide pIC50
A. < 6

Q. Item Cc1ccc2c(c1)N1OC(CN(C)C)CC1c1ccccc1C2 (centres undefined) : provide pIC50
A. < 6

Q. Item CN(C)CC1CC2c3ccccc3Cc3ccc(Cl)cc3N2O1 (centres undefined) : provide pIC50
A. 6.32

Others:
Q. Item CN(C)CC1CC2c3ccccc3Cc3ccc(F)cc3N2O1 (centres undefined) : provide pIC50
A. < 6

---

Molecular target: 5-hydroxytryptamine receptor 2A (Homo sapiens)
Test: Binding affinity at human cloned 5-hydroxytryptamine 2A receptor expressed in L929 cells by [125I]R91150 displacement.
Assay type: cell-based
observable: IC50

Worked examples follow.
Q. Item CN(C)CC1CC2c3c(F)cccc3Cc3ccccc3N2O1 (stereo not drawn) : provide IC50
A. > 1000 nM

Q. Item CN(C)CC1CC2c3cccc(Cl)c3Cc3ccccc3N2O1 (stereo not drawn) : provide IC50
A. > 1000 nM

Would you kindly look at the next entry?
Q. Item CN(C)CC1CC2c3cc(C(F)(F)F)ccc3Cc3ccccc3N2O1 (stereo not drawn) : provide IC50
A. > 1000 nM

Where do the numbers come from? From ChEMBL document CHEMBL1135381.
